Biological target: T1, recombinant BACE1 (BACE1 extracellular domain, R&D Systems Cat#931-AS) (UniProt P56817 22-457)
T1 construct: extracellular domain; also called BACE1 extracellular domain protein
T1 sequence (P56817 22-457): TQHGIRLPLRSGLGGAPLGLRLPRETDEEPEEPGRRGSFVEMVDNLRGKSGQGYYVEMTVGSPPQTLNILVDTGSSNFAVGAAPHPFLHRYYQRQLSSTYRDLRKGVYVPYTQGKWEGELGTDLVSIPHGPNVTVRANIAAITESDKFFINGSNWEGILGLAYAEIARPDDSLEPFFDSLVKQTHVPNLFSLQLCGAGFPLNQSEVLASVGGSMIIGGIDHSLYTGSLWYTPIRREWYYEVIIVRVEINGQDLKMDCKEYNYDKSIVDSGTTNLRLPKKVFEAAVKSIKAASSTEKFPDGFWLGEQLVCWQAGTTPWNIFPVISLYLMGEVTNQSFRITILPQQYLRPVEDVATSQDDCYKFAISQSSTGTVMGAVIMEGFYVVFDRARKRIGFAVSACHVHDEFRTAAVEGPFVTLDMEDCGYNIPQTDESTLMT
Experiment: SPR Biacore
reported property: kon (M⁻¹ s⁻¹)
Number in M⁻¹ s⁻¹, nothing else.

Prompt: Which kon value is on record for 2H8.26 (antibody, human IgG1, V domains shown, human IgG1/kappa; also called 2H8_HCvar2 + 2H8_LCvar5) VH: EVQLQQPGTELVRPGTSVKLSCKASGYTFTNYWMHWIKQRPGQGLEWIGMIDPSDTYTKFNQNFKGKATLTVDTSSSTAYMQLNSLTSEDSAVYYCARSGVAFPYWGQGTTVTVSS VL: DIVMTQSQKFMSTSVGDRVSVTCKASQNVGTNVAWYQQKSGQSPKALIYSASHRYSGVPDRFTGSGSGTDFTLTISNVQSEDLAEYFCQQYNSYPYTFGGGTKLEIK ?
Completion: 17000

Prompt: Ok, now 2H8.17 (antibody, human IgG1, V domains shown, human IgG1/kappa; also called 2H8_HCvar5 + 2H8_LCvar3) VH: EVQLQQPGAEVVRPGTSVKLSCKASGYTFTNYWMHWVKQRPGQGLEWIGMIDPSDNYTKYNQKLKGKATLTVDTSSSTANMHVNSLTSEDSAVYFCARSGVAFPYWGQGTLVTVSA VL: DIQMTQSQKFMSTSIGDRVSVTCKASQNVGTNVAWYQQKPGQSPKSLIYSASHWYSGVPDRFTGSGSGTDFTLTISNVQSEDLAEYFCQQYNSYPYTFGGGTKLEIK
Completion: 13600

Prompt: Ok, now 2H8.22 (antibody, human IgG1, V domains shown, human IgG1/kappa; also called 2H8_HCvar4 + 2H8_LCvar4) VH: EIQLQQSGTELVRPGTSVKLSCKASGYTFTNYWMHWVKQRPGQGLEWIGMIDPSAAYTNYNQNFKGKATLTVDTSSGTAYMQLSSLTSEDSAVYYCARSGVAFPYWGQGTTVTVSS VL: DIVMTQSQKFMSTSVGDRVSITCKASQNVGTNVAWYQQKPGQSPKALIYSASYRYSGVPDRFTGSGSGTDFTLTISNVQSEDLAEYFCQQYNSYPYTFGGGTKLEIK
Completion: 35900
